Where these numbers come from: patent US11135234B2

Tested on: S. marcescens GN6944
Experiment: MIC, agar plate dilution method, S. marcescens GN6944
Assay type: cell-based, Serratia marcescens
Conditions: S. marcescens GN6944, GM-resistant
MEASURED_METRIC: minimal inhibitory concentration (MIC) (µg/mL)
Give the number; µg/mL is assumed, so skip it.

CNC1C(OC2OC(CO)C(N)CC2O)OC2CC(N)C(OC3CCC(N)CC3N)OC2C1O (stereo not shown) [Compound N7, 5,6,3″-trideoxyapramycin]: 4
CNC1C(OC2OC(CO)C(N)CC2O)OC2CC(N)C(OC3C(N)CC(N)C(O)C3N)OC2C1O (stereo not shown) [Compound N9, 5-amino-5,3″-dideoxy-5-epiapramycin]: 8

Query :: Report minimal inhibitory concentration (MIC), nothing else, for this molecule: CNC1C(OC2OC(CO)C(N)C(O)C2O)OC2CC(N)C(OC3C(N)CC(N)CC3F)OC2C1O (stereo not shown) [Compound C8, 5,6-dideoxy-5-fluoroapramycin]
Result :: 4

Query :: Report minimal inhibitory concentration (MIC), nothing else, for this molecule: CN[C@@H]1[C@@H](O[C@H]2O[C@H](CO)[C@@H](N)[C@H](O)[C@H]2O)O[C@H]2C[C@@H](N)[C@@H](O[C@H]3[C@@H](F)[C@H](N)[C@H](N)C[C@@H]3N)O[C@@H]2[C@@H]1O [Compound F3]
Result :: 16

Query :: Report minimal inhibitory concentration (MIC), nothing else, for this molecule: CNC1C(OC2OC(CO)C(NCCNC(=N)N)C(O)C2O)OC2CC(N)C(OC3C(N)CC(N)C(O)C3O)OC2C1O (stereo not shown) [Compound A4-k, 4″-N-guanidinoethylapramycin]
Result :: 4

Query :: Report minimal inhibitory concentration (MIC), nothing else, for this molecule: CN[C@@H]1[C@@H](O[C@H]2O[C@H](CO)[C@@H](NC)[C@H](O)[C@H]2O)O[C@H]2C[C@@H](N)[C@@H](O[C@H]3CC[C@H](N)C[C@@H]3N)O[C@@H]2[C@@H]1O [Compound T2-a, 5,6-dideoxy-4″-N-methylapramycin]
Result :: 4

Query :: Report minimal inhibitory concentration (MIC), nothing else, for this molecule: CNC1C(OC2OC(CO)C(N)C(O)C2O)OC2CC(N)C(OC3C(N)CC(N)C(O)C3O)OC2C1O (stereo not shown) [Compound I3, 2″,3″-diepiapramycin]
Result :: 16

Query :: Report minimal inhibitory concentration (MIC), nothing else, for this molecule: CNC1C(OC2OC(CO)C(N)CC2O)OC2CC(N)C(OC3C(N)CC(N)C(O)C3F)OC2C1O (stereo not drawn) [Compound M10, 5,3″-dideoxy-5-epi-5-fluoroapramycin]
Result :: 4

Query :: Report minimal inhibitory concentration (MIC), nothing else, for this molecule: CNC1C(OC2OC(C)C(N)C(O)C2O)OC2CC(N)C(OC3C(N)CC(N)CC3O)OC2C1O (stereo not shown) [Compound Q4, 6,6″-dideoxy-5-epiapramycin]
Result :: 4

Query :: Report minimal inhibitory concentration (MIC), nothing else, for this molecule: CN[C@@H]1[C@@H](O[C@H]2O[C@H](CO)[C@@H](NC(CN)CN)[C@H](O)[C@H]2O)O[C@H]2C[C@@H](N)[C@@H](O[C@H]3[C@@H](O)[C@@H](O)[C@H](N)C[C@@H]3N)O[C@@H]2[C@@H]1O [Compound S1-i]
Result :: 4

Query :: Report minimal inhibitory concentration (MIC), nothing else, for this molecule: CN[C@@H]1[C@@H](O[C@H]2O[C@H](CO)[C@@H](N)[C@H](O)[C@H]2O)O[C@H]2C[C@@H](N)[C@@H](O[C@H]3[C@H](N)[C@@H](O)[C@H](N)C[C@@H]3N)O[C@@H]2[C@@H]1O [Compound E3, 5-amino-5-deoxyapramycin]
Result :: 16

Query :: Report minimal inhibitory concentration (MIC), nothing else, for this molecule: CNC1C(O[C@H]2OC(CO)[C@@H](NC3CNC3)[C@H](O)C2O)O[C@H]2CC(N)[C@@H](O[C@@H]3C(N)C[C@@H](N)C(O)[C@H]3O)OC2C1O (stereo partly shown) [Compound A4-h, 4″-N-(azetidin-3-yl)apramycin]
Result :: 8

---

System: P. aeruginosa MSC17707
Experiment: MIC, agar plate dilution method, P. aeruginosa MSC17707
Type: cell-based, Pseudomonas aeruginosa
Details: Pseudomonas aeruginosa, MSC17707, P. aeruginosa MSC17707, AMK-resistant, read-out: minimal inhibitory concentration (MIC)
MEASURED_METRIC: MIC
Don't forget the unit after the value.

// solved cases for MIC follow
NCC[C@H](O)C(=O)N[C@@H]1C[C@H](N)[C@@H](O[C@H]2O[C@H](CN)[C@@H](O)[C@H](O)[C@H]2O)[C@H](O)[C@H]1O[C@H]1O[C@H](CO)[C@@H](O)[C@H](N)[C@H]1O [AMK, amikacin, reference compound]: 32 µg/mL
CNC1C(O[C@H]2OC(CO)[C@@H](NC(=O)[C@@H](C)N)[C@H](O)C2O)O[C@H]2CC(N)[C@@H](O[C@@H]3C(N)C[C@@H](N)C(O)[C@H]3O)OC2C1O (stereo partly drawn): 8 µg/mL
CNC1C(O[C@H]2OC(CO)[C@@H](NC3CN(C)C3)[C@H](O)C2O)O[C@H]2CC(N)[C@@H](O[C@@H]3C(N)C[C@@H](N)C(O)[C@H]3O)OC2C1O (stereo partly drawn): 16 µg/mL
CNC1C(O[C@H]2OC(CO)[C@@H](NC(=O)[C@@H](O)CN)[C@H](O)C2O)O[C@H]2CC(N)[C@@H](O[C@@H]3C(N)C[C@@H](N)C(O)[C@H]3O)OC2C1O (stereo partly drawn): 4 µg/mL

Query :: Report MIC, nothing else, for this compound: CNC1C(O[C@H]2OC(C)[C@@H](N)[C@H](O)C2O)O[C@H]2CC(N)[C@@H](O[C@H]3CC[C@H](N)CC3N)OC2C1O (stereo partly drawn)
Result :: 16 µg/mL

Query :: Report MIC, nothing else, for this compound: CNC1C(O[C@H]2OC(CO)[C@@H](NC(=O)CCN)[C@H](O)C2O)O[C@H]2C[C@H](N)[C@@H](O[C@@H]3C(N)C[C@@H](N)C[C@H]3O)OC2C1O (stereo partly drawn) [Compound V1-q, 4″-N-(β-alanyl)-6-deoxy-5-epiapramycin]
Result :: 2 µg/mL

---

Test system: A. baumannii ATCC BAA-1710
MEASURED_METRIC: MIC

// solved cases for MIC follow
CNC1C(O[C@H]2OC(CO)[C@@H](NC(=N)N)[C@H](O)C2O)O[C@H]2CC(N)[C@@H](O[C@@H]3C(N)C[C@@H](N)C[C@H]3O)OC2C1O (stereo partly drawn) [Compound S1-o]: 4 µg/mL
CNC1C(O[C@H]2OC(CO)[C@@H](NCCN)[C@H](O)C2O)O[C@H]2CC(N)[C@@H](O[C@@H]3C(N)C[C@@H](N)C(O)[C@H]3O)OC2C1O (stereo partly drawn) [Compound S1-g, 4″-N-(2-aminoethyl)-5-epiapramycin]: 4 µg/mL

Consider the additional compound presented here.
Query :: Report MIC, nothing else, for this compound: CNC1C(O[C@H]2OC(CO)[C@@H](NC(=O)CCN)[C@H](O)C2O)O[C@H]2C[C@H](N)[C@@H](O[C@@H]3C(N)C[C@@H](N)C[C@H]3O)OC2C1O (stereo partly drawn) [Compound V1-q, 4″-N-(β-alanyl)-6-deoxy-5-epiapramycin]
Result :: 4 µg/mL

---

Tested on: K. pneumoniae ATCC BAA-1705
Assay: MIC, agar plate dilution method, K. pneumoniae ATCC BAA-1705
Assay type: cell-based, Klebsiella pneumoniae
Conditions: K. pneumoniae ATCC BAA-1705, KPC-producing strain
Method: As for the representative compounds of a new aminoglycoside antibiotic of the present invention described in Examples, the minimal inhibitory concentration (MIC, μg/mL) was measured for various assay strains of bacteria using an agar plate dilution method in accordance with the method described in the Japan Society of Chemotherapy.
Readings of minimal inhibitory concentration (MIC) for the listed molecules
Give the number; µg/mL is assumed, so skip it.

// solved cases for minimal inhibitory concentration (MIC) follow
CNC1C(OC2OC(CO)C(N)CC2O)OC2CC(N)C(OC3CCC(N)CC3N)OC2C1O (stereo not drawn): 1
CN[C@@H]1[C@@H](O[C@H]2O[C@H](CO)[C@@H](N)C[C@H]2O)O[C@H]2C[C@@H](N)[C@@H](O[C@H]3C[C@@H](O)[C@H](N)C[C@@H]3N)O[C@@H]2[C@@H]1O: 1
CNC1C(OC2OC(CO)C(NCC3(N)CCCC3)C(O)C2O)OC2CC(N)C(OC3C(N)CC(N)C(O)C3O)OC2C1O (stereo not drawn): 1
CNC1C(OC2OC(C)C(N)C(O)C2O)OC2CC(N)C(OC3C(N)CC(N)CC3O)OC2C1O (stereo not drawn) [Compound Q4, 6,6″-dideoxy-5-epiapramycin]: 1
CNC1C(O[C@H]2OC(CO)[C@@H](NC(=O)[C@H](C)N)[C@H](O)C2O)O[C@H]2CC(N)[C@@H](O[C@@H]3C(N)C[C@@H](N)C(O)[C@H]3O)OC2C1O (stereo partly drawn) [Compound V1-c, 4″-N-(L-alanyl)apramycin]: 4
CN[C@@H]1[C@@H](O[C@@H]2C[C@H](O)[C@H](N)[C@@H](CO)O2)O[C@H]2C[C@@H](N)[C@@H](O[C@H]3[C@@H](F)[C@@H](O)[C@H](N)C[C@@H]3N)O[C@@H]2[C@@H]1O: 1

Query :: Report minimal inhibitory concentration (MIC), nothing else, for this molecule: CN[C@@H]1[C@@H](O[C@H]2O[C@H](CO)[C@@H](NC(CN)CN)[C@H](O)[C@H]2O)O[C@H]2C[C@@H](N)[C@@H](O[C@H]3[C@@H](O)[C@@H](O)[C@H](N)C[C@@H]3N)O[C@@H]2[C@@H]1O
Result :: 1

Query :: Report minimal inhibitory concentration (MIC), nothing else, for this molecule: CNC1C(O[C@H]2OC(CO)[C@@H](NCCCN)[C@H](O)C2O)O[C@H]2CC(N)[C@@H](O[C@@H]3C(N)C[C@@H](N)C(O)[C@H]3O)OC2C1O (stereo partly drawn) [Compound S1-h, 4″-N-(3-aminopropyl)-5-epiapramycin]
Result :: 2

Query :: Report minimal inhibitory concentration (MIC), nothing else, for this molecule: CN[C@@H]1[C@@H](O[C@H]2O[C@H](CO)[C@@H](NC(=N)N)[C@H](O)[C@H]2O)O[C@H]2C[C@@H](N)[C@@H](O[C@H]3[C@@H](O)[C@@H](O)[C@H](N)C[C@@H]3N)O[C@@H]2[C@@H]1O [Compound S1-j, 4″-deamino-5-epi-4″-guanidinoapramycin]
Result :: 1

Query :: Report minimal inhibitory concentration (MIC), nothing else, for this molecule: CNC1C(CO)OC(OC2OC3CC(N)C(OC4C(N)CC(N)CC4O)OC3C(O)C2NC)C(O)C1O (stereo not drawn) [Compound S1-l, 6-deoxy-5-epi-4″-N-methylapramycin]
Result :: 1

Query :: Report minimal inhibitory concentration (MIC), nothing else, for this molecule: CN[C@@H]1[C@@H](O[C@H]2O[C@H](CO)[C@@H](NC)[C@H](O)[C@H]2O)O[C@H]2C[C@@H](N)[C@@H](O[C@H]3CC[C@H](N)C[C@@H]3N)O[C@@H]2[C@@H]1O
Result :: 1

Query :: Report minimal inhibitory concentration (MIC), nothing else, for this molecule: CNC1C(O[C@H]2OC(CO)[C@@H](NC)[C@H](O)C2O)O[C@H]2CC(N)[C@@H](O[C@@H]3C(N)C[C@@H](N)C(O)[C@H]3O)OC2C1O (stereo partly drawn) [Compound S1-f, 5-epi-4″-N-methylapramycin]
Result :: 2

Query :: Report minimal inhibitory concentration (MIC), nothing else, for this molecule: CNC1C(O[C@H]2OC(CO)[C@@H](NC(=O)CN)[C@H](O)C2O)O[C@H]2CC(N)[C@@H](O[C@@H]3C(N)C[C@@H](N)C(O)[C@H]3O)OC2C1O (single isomer, unassigned)
Result :: 2

Query :: Report minimal inhibitory concentration (MIC), nothing else, for this molecule: CNC1C(O[C@H]2OC(CO)[C@@H](NC3CNC3)[C@H](O)C2O)O[C@H]2CC(N)[C@@H](O[C@@H]3C(N)C[C@@H](N)C(O)[C@H]3O)OC2C1O (stereo partly drawn)
Result :: 4

Query :: Report minimal inhibitory concentration (MIC), nothing else, for this molecule: CNC1C(OC2OC(CO)C(N)C(O)C2O)OC2CC(N)C(OC3C(N)CC(N)CC3F)OC2C1O (stereo not drawn)
Result :: 1
